tested on: PBMC; experiment: Immunostimulatory effect in human PBMC cells assessed as increase in […]/ionomycin-induce IL-10 release at 20.2 uM after 18 hrs by flow cytometry analysis relative to PMA and ionomycin; type: functional
Outcome label depends on Activity relative to 90%: at/above gives 1.0, below gives 0.0.

{"MOLECULE": "C[C@H](NC(=O)CCCCN1C(=O)c2ccccc2S1(=O)=O)C(=O)N[C@H](CCC(=O)O)C(N)=O", "DISCRETE LABEL": 0.0}
{"MOLECULE": "C[C@H](NC(=O)COCCN1C(=O)c2ccccc2S1(=O)=O)C(=O)N[C@H](CCC(=O)O)C(=O)O", "DISCRETE LABEL": 1.0}

stdin: Form field: Activity at least 90%? Entry: CCCCOC(=O)[C@@H](CCC(N)=O)NC(=O)[C@H](C)NC(=O)[C@@H](C)O[C@H]1[C@H](O)[C@@H](CO)OC(O)[C@@H]1NC(C)=O (stereo partly specified) [MURABUTIDE]
stdout: 1.0

stdin: Form field: Activity at least 90%? Entry: CCOC(=O)CC[C@@H](NC(=O)[C@H](C)NC(=O)C1=C2c3ccccc3S(=O)(=O)N2CCC1)C(N)=O
stdout: 0.0

* * *

tested on: PBMC; test: Immunomodulatory effect in human PBMC cells assessed as increase in LPS-induced IL-10 release at 20.2 uM after 18 hrs by flow cytometry analysis relative to LPS; type: functional
PARAMETER: Activity (%)
// return numeric value only (unit: %, not printed)

{"COMPOUND": "CCCCOC(=O)[C@@H](CCC(N)=O)NC(=O)[C@H](C)NC(=O)[C@@H](C)O[C@H]1[C@H](O)[C@@H](CO)OC(O)[C@@H]1NC(C)=O (stereo not given in full) [MURABUTIDE]", "MEASURE UNIT": "%", "Activity": 559}
{"COMPOUND": "CCOC(=O)CC[C@@H](NC(=O)[C@H](C)NC(=O)C1=C2c3ccccc3S(=O)(=O)N2CCC1)C(N)=O", "MEASURE UNIT": "%", "Activity": 105.5}
{"COMPOUND": "C[C@H](NC(=O)COCCN1C(=O)c2ccccc2S1(=O)=O)C(=O)N[C@H](CCC(=O)O)C(N)=O", "MEASURE UNIT": "%", "Activity": 84.5}
{"COMPOUND": "C[C@H](NC(=O)CCCCN1C(=O)c2ccccc2S1(=O)=O)C(=O)N[C@H](CCC(=O)O)C(N)=O", "MEASURE UNIT": "%", "Activity": 98}

Now look at this entry.
Looking up C[C@H](NC(=O)C1=C2c3ccccc3S(=O)(=O)N2CCC1)C(=O)N[C@H](CCC(=O)O)C(N)=O , I found its Activity recorded as 94

* * *

system: PBMC; assay: Immunomodulatory effect in human PBMC cells assessed as increase in LPS-induced IL-6 release at 20.2 uM after 18 hrs by flow cytometry analysis relative to LPS; type: functional
PARAMETER: Activity (%)
// return numeric value only (unit: %, not printed)

Worked examples, 4 compounds total:
{"COMPOUND": "C[C@H](NC(=O)COCCN1C(=O)c2ccccc2S1(=O)=O)C(=O)N[C@H](CCC(=O)O)C(N)=O", "Activity, %": 95.5}
{"COMPOUND": "CCCCOC(=O)[C@@H](CCC(N)=O)NC(=O)[C@H](C)NC(=O)[C@@H](C)O[C@H]1[C@H](O)[C@@H](CO)OC(O)[C@@H]1NC(C)=O (stereo not given in full) [MURABUTIDE]", "Activity, %": 594.5}
{"COMPOUND": "CCOC(=O)CC[C@@H](NC(=O)[C@H](C)NC(=O)C1=C2c3ccccc3S(=O)(=O)N2CCC1)C(N)=O", "Activity, %": 120}
{"COMPOUND": "C[C@H](NC(=O)CCCCN1C(=O)c2ccccc2S1(=O)=O)C(=O)N[C@H](CCC(=O)O)C(N)=O", "Activity, %": 109}

Measured Activity for this entry C[C@H](NC(=O)C1=C2c3ccccc3S(=O)(=O)N2CCC1)C(=O)N[C@H](CCC(=O)O)C(N)=O on PBMC: 103.5
